// data source = patent US20190031618A1

Target: Human CB2R (Cannabinoid receptor 2) (Homo sapiens, UniProt P34972)
Sequence (P34972 whole entry): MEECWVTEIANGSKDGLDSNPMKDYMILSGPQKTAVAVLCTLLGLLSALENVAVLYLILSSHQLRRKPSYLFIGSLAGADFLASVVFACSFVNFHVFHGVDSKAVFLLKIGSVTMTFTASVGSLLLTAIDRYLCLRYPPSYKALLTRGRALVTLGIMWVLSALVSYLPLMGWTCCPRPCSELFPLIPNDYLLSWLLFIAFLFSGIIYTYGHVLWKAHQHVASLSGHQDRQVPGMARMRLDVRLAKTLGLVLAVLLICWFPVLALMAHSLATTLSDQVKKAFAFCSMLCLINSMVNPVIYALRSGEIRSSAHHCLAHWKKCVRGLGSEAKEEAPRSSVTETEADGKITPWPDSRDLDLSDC
Assay: CB-2 in vitro cAMP (HTRF) assay
Conditions: HEK cells, cAMP HTRF, 250 nM forskolin; mean where tested more than once; read-out: CB2 HEK_cAMP EC50
EC50 for assorted molecules
metricName: EC50

molecule | measuredValue
CC(C)Cc1nc2ccc(C(c3ccc(Cl)cc3)c3nccs3)cc2n1C1CCN(S(=O)(=O)C(F)(F)F)CC1 (stereo not drawn) | 0.091 µM
C#CCN1CCC(n2c(C3CC3)nc3ccc(C(c4ccc(Cl)cc4)c4ccc(Cl)cc4)cc32)CC1 | 2.06 µM
OC(Cn1c(C2CC2)nc2ccc(C(c3ccc(Cl)cc3)c3ccc(Cl)cc3)cc21)c1ccccc1 (single isomer, unassigned) | > 10 µM
CS(=O)(=O)N1CCC(n2c(C3CC3)nc3ccc(C(c4ccc(Cl)cc4)c4ccc(Cl)cc4)cc32)CC1 | 9.9 µM
Clc1ccc(C(c2ccc3nc(C4CC4)n(CCc4cccc(Cl)c4)c3c2)c2nccs2)cc1 (stereo not drawn) | > 10 µM
CCc1csc(C(c2ccc(Cl)cc2)c2ccc3nc(-c4ccc(Cl)cc4)n(Cc4ccc(Cl)cc4)c3c2)n1 (stereo not drawn) | > 9.2 µM
Oc1ccc(CCn2c(C3CC3)nc3ccc(C(c4ccc(Cl)cc4)c4ccc(Cl)cc4)cc32)cc1 | 7.26 µM
O=C(O)c1cccc(CN2CCC(n3c(C4CC4)nc4ccc(C(c5ccc(F)cc5)c5ccc(Cl)cc5)cc43)CC2)c1 (stereo not drawn) | > 10 µM
O=S(=O)(N1CCC(n2c(C3CCC3)nc3ccc(C(c4ccc(Cl)cc4)c4ccc(Cl)cc4)cc32)CC1)C(F)(F)F | > 10 µM
Nc1cccc(S(=O)(=O)N2CCC(n3c(C4CC4)nc4ccc(C(c5ccc(Cl)cc5)c5ccc(Cl)cc5)cc43)CC2)c1 | > 10 µM
O=S(=O)(N1CCC(n2c(C3CC3)nc3ccc(C(c4ccc(Cl)cc4)c4ccc(Cl)cc4)cc32)CC1)C(F)(F)F | > 10 µM
NC(=O)CCC(=O)N1CCC(n2c(C3CC3)nc3ccc(C(c4ccc(Cl)cc4)c4ccc(Cl)cc4)cc32)CC1 | 9.6 µM
CC(c1ccc(C(=O)O)o1)N1CCC(n2c(C3CC3)nc3ccc(C(c4ccc(Cl)cc4)c4ccc(Cl)cc4)cc32)CC1 (stereo not drawn) | 10.2 µM
NC(=O)COc1ccc(N2CCC(n3c(C4CC4)nc4ccc(C(c5ccc(Cl)cc5)c5ccc(Cl)cc5)cc43)CC2)cc1 | 5.25 µM
O=C(O)C(c1ccc(Cl)cc1)(c1ccc(Cl)cc1)c1ccc2nc(C3CC3)n(CC3CCN(S(=O)(=O)C(F)(F)F)CC3)c2c1 | > 10 µM
CCOC(=O)N1CCC(n2c(C3CC3)nc3ccc(C(c4ccc(Cl)cc4)c4nccs4)cc32)CC1 (stereo not drawn) | > 10 µM
O=C(O)c1cccc(CN2CCC(n3c(C4CC4)nc4ccc(C(c5ccc(Cl)cc5)c5ccc(Cl)cc5)cc43)CC2)n1 | 9.9 µM
CC(c1cccc(C(=O)O)c1)N1CCC(n2c(C3CC3)nc3ccc(C(c4ccc(Cl)cc4)c4ccc(Cl)cc4)cc32)CC1 (single isomer, unassigned) [Example 48] | 3.84 µM
O=C(O)c1cc(CN2CCC(n3c(C4CC4)nc4ccc(C(c5ccc(Cl)cc5)c5ccc(Cl)cc5)cc43)CC2)cc(C(F)(F)F)c1 | 1.75 µM
O=C(O)c1ccc(-c2cccc(S(=O)(=O)NCCCn3c(C4CC4)nc4ccc(C(c5ccc(Cl)cc5)c5ccc(Cl)cc5)cc43)c2)cc1 | 0.0782 µM
Cc1ccc(C(c2ccc(Cl)cc2)c2ccc3nc(C4CC4)n(C4CCN(Cc5cccc(C(=O)O)c5)CC4)c3c2)cc1 (stereo not drawn) | 6.3 µM
Clc1ccc(C(c2ccc3nc(-c4ccc(Cl)cc4Cl)n(C4CCCCC4)c3c2)c2nccs2)cc1 (stereo not drawn) | > 10 µM
CC(C)(C)c1nc2ccc(C(O)(c3ccc(Cl)cc3)c3ccc(Cl)cc3)cc2n1C1CCN(S(=O)(=O)C(F)(F)F)CC1 | > 10 µM
O=C(O)c1cccc(S(=O)(=O)N[C@H]2CC[C@@H](n3c(C4CC4)nc4ccc(C(c5ccc(Cl)cc5)c5ccc(Cl)cc5)cc43)CC2)c1 | 12.1 µM
O=C(O)c1cccc(N[C@H]2CC[C@H](n3c(C4CC4)nc4ccc(C(c5ccc(Cl)cc5)c5ccc(Cl)cc5)cc43)CC2)c1 | 3 µM
Cc1nc2ccc(C(c3ccc(Cl)cc3)c3nccs3)cc2n1C1CCN(S(=O)(=O)C(F)(F)F)CC1 (stereo not drawn) | > 10 µM
NC(=O)COc1cccc(N2CCC(n3c(C4CC4)nc4ccc(C(c5ccc(Cl)cc5)c5ccc(Cl)cc5)cc43)CC2)c1 | 3.61 µM
